// melting point lookup, one value per entry

# melting point lookup, item N#CSCC(Br)=C(Br)CBr
89 to 91 °C

Another: Cc1cccc(NC(=O)NC2N=C(c3ccccc3F)c3ccccc3N(Cc3nc4ccccc4o3)C2=O)c1 (racemic)
209 to 210 °C

Another: CCc1cccc(C)c1COc1cc(C(=O)N(C)C)cc2c1nc(C)n2C
161 to 162 °C

Another: CC(=O)N1CCC(C(=O)c2ccc(Br)cc2)CC1
120 °C

Another: Cc1oc2c(NC(=O)c3c(Cl)ccc(Cl)c3C(=O)O)cccc2c1C
186 to 188 °C

Another: CCOC(=O)c1ccc(C(CCc2cc(Cl)ccc2N2CCCCC2)C(N)=O)cc1 (stereo not given)
95 to 97 °C

Continuing:
# melting point lookup, item Clc1ncc(Cl)n2ccnc12
102 °C

Another: CC(C)(C)c1ccccc1N1CCN(C(=O)CCC(=O)NS(C)(=O)=O)CC1
89 to 90 °C

Another: C#Cc1ccc(C(O)(Cn2cncn2)C(C)(C)C)cc1 (stereo not given)
101 °C

Another: CN(C)C=Nc1nc(OCc2ccc(F)cc2)ncc1F
113 to 115 °C

Another: CCOC(=O)c1c(C)cc2c(c1C)c(=O)n(-c1ccccc1Cl)c(=O)n2CCCN(C)Cc1ccccc1
145 to 146 °C

Another: O=CNc1cnc2ccccc2c1Cl
175 to 177 °C

Another: Cc1ccccc1[C@H]1O[C@H](CC(=O)O)C(=O)N(CC(C)C)c2ccccc21 (relative stereo)
192 to 195 °C

* * *

// melting point lookup, one value per entry

Record excerpt, results attached:
# melting point lookup, item Clc1ccc(CN2CC=C(/C=C/c3ccccc3)CC2)cc1
141 to 142 °C

Another: CC(C)C1Cc2ccccc2P1c1ccccc1P1c2ccccc2CC1C(C)C (single isomer, unassigned; (+))
70 to 71 °C

Another: Cc1cccc(C(=O)c2ccc(OCC(=O)O)c(Cl)c2Cl)c1
173 to 175 °C

Another: Cc1cc(C)c(C(=O)O)c(C)c1C
164 to 167 °C

Another: CCOC(=O)c1cccc2c(=O)cc(-c3ccc(OCc4ncc5ccccc5n4)cc3)oc12
265 to 266 °C

Continuing:
# melting point lookup, item CCN(CC)C(=O)c1cc2cc(OC)c(OC)cc2c(-c2ccccc2)n1
134 °C

* * *

// melting point lookup, one value per entry

Record excerpt, results attached:
# melting point lookup, item Clc1cnc(SCI)nc1
67 °C

Another: O=C1COc2cc(NC(=O)C(=O)N3CCC(Cc4ccccc4)CC3)ccc2N1
123 to 126 °C

Another: C[C@]12CCC(=O)C=C1CC[C@@H]2c1cn(Cc2ccccc2)nn1
122 to 125 °C

Another: O=c1oc2cccnc2n1CCCN1CCN(c2cccc(C(F)(F)F)c2)CC1
62 to 63 °C

Another: C=CCOc1ccc(-c2nc3ccccc3o2)cc1
95 to 96 °C

Continuing:
# melting point lookup, item CC(C)NC1=NS(=O)(=O)c2cc(Cl)sc2N1
272 to 274 °C

Another: CC(C)(CCCOc1ccc(CCC(=O)c2ccc(-c3ccc(C(F)(F)F)cc3)s2)c(Cl)c1Cl)C(=O)O
167 to 169 °C

Another: Cc1ccc(Nc2ccc(OC(F)(F)F)cc2)cc1
43.7 °C

Another: CNCCN1C(=O)[C@H](O)[C@H](c2ccc(OC)cc2)Sc2cc(Cl)ccc21
142 to 145 °C

Another: C#CC(C)(C)N1CCN(C(=O)C(C)(C)C)CC1
106 to 109 °C

Another: CCc1cc2c(s1)SCCc1cc(=O)n(C)nc1-2
168 to 170 °C

Another: Cc1nc(OCC(F)(F)F)c([N+](=O)[O-])c(N2CCC(c3ccccc3)CC2)n1
114 to 117 °C

Another: CCc1nccn1Cc1ccc2c(c1)-c1[nH]nc(-c3ccsc3)c1C2
238 to 239 °C

* * *

// melting point lookup, one value per entry

# melting point lookup, item Cc1oc(-c2ccccc2)nc1CN(C)C(=O)c1ccc(C=C2SC(=O)NC2=O)cc1
95 to 98 °C

Another: Cn1c(=O)oc2cc([N+](=O)[O-])cc(F)c21
118 to 119 °C

Another: CCCc1c(OCC(O)CNc2cccc(N)c2C#N)ccc(C(C)=O)c1O (centres undefined)
111 to 114 °C

Continuing:
# melting point lookup, item CS(=O)(=O)N1CCSc2ccccc2C1
98 to 100 °C

Another: COc1c(C#N)ccc2c1Cc1ccccc1CS2
117 to 118 °C

Another: C[C@H](C(=O)c1ccccc1F)n1ccn(-c2ccc(OC(F)(F)C(F)F)cc2)c1=O
78 to 79 °C

Another: CCOC(=Cc1ccncc1)C(C)=O
84 to 88 °C

Another: Cn1cc(-c2cccc(F)c2)c(=O)c(-c2cccc(F)c2)c1
149 to 151 °C

Another: Cc1ccsc1C(Cc1ccccc1N)N(C)C(=O)C(C)C (centres undefined)
137 to 141 °C

Another: O=c1oc2c(c(O)c1C(c1ccccc1)C1CC1)CCCCC2CC1CCCOC1 (centres undefined)
82 to 90 °C

Another: CC(=O)OCC(=O)C1(OC(C)=O)C(C)CC2C3CC(C)C4=CC(=O)CCC4(C)C3(F)C(O)CC21C (centres undefined)
194 to 195 °C

Another: N#CCc1nnc2n1-c1ccc(Cl)cc1C(c1ccccc1)=NC2
198 to 201 °C

Another: CCOC(=O)Cc1[nH]c(C(=O)c2ccccc2)c(C)c1C(=O)O
183 to 185 °C

Another: CCS(=O)(=O)Nc1ccc(OC(=O)NC)cc1C
146 to 148 °C

Another: O=C1CC(=O)c2cc(OCCCOc3ccccc3)ccc21
91 to 94 °C

* * *

// melting point lookup, one value per entry

Record excerpt, results attached:
# melting point lookup, item COc1cc(NCCCN(C)Cc2ccccc2)ccc1C(N)=O
116 to 118 °C

Another: Cc1ccc(S(=O)(=O)ON=C(CCN2C(=O)c3ccccc3C2=O)n2nc(C)c(Cl)c2N)cc1
168 to 171 °C

Another: CSc1nn(-c2c(Cl)cc(C(F)(F)F)cc2Cl)c(C)c1C(=O)c1cccc(C)c1
103 to 104 °C

Another: O=C(C=CC(=O)OC(Cl)C(Cl)(Cl)Cl)OC(Cl)C(Cl)(Cl)Cl (stereo not given)
144 °C

Continuing:
# melting point lookup, item CCOC(=O)C[C@H](O)C[C@H](O)/C=C/c1c(-c2ccc(F)cc2)nc(N(C)S(C)(=O)=O)nc1C(C)C
92 to 94 °C

* * *

// melting point lookup, one value per entry

# melting point lookup, item Cc1nn(C)c2c(=O)n(-c3ccc(Cl)c(Cl)c3)cnc12
250 to 251 °C

Another: C=CCC[Si](c1ccccc1)(c1ccccc1)C1SCCCS1
47 to 49 °C

Another: Cc1ccncc1OC1SCC(O)C(O)C1O (stereo not given)
236 °C

Another: Clc1ccc(C(N=C2NCCN2)c2ccccc2)cc1 (stereo not given)
187 to 189 °C

Another: COc1ccc(C(=O)NCCc2ccc(-c3ccc(O)cc3)cc2)cc1OC
170 °C

Continuing:
# melting point lookup, item CC12CCC(=O)CC1CCC1C2CCC2(C)C(O)C(N=[N+]=[N-])CC12 (stereo not given)
165 to 167 °C

Another: CSCC(=O)[C@H](Cc1ccccc1)NC(=O)[C@H](CC(C)C)NS(=O)(=O)c1ccccc1
133 to 136 °C

Another: CCNc1ncc2ccc(=O)n(-c3ccccc3)c2n1
193 to 195 °C

Another: CCNc1cc(Oc2ccc(NC(=O)NC3Cc4ccc(Br)cc4C3)cc2)ncn1 (stereo not given)
247 °C

Another: CCO/C(=N/O)C1Cc2cc(C(C)=O)c(O)c(Cl)c2O1 (stereo not given)
154 to 155 °C

* * *

attribute measured: melting point

Record excerpt, results attached:
# melting point lookup, item O=C(NCCc1cccc(-c2nc(=O)c3ccccc3s2)n1)c1ccccc1
202 to 203 °C

Another: Cn1c(CCCCl)nc2ccc3ccccc3c21
246 to 248 °C

Another: CCn1cnc(Cl)c2nc(C3CC3)nc1-2
140 to 145 °C

Continuing:
# melting point lookup, item CC1(CN)CN(c2c(F)cc3c(=O)c(C(=O)O)cn(C4CC4)c3c2F)C1
268 to 270 °C

Another: CC(C)(C)c1cc(SCCC(=O)NNC=O)cc(C(C)(C)C)c1O
158 to 159 °C

Another: Nc1ccn(C2OC(CO)C(O)C2O)c(=O)c1Br (stereo not given)
202 to 204 °C

Another: COc1ccc(C2Sc3c(ccc4ccccc34)N(CCN(C)C)C(=O)C2OC(=O)c2ccc(O)c(O)c2)cc1 (stereo not given)
146 to 148 °C

Another: CCCCN(CCCc1coc2c(OC)cccc12)C1COc2c(F)ccc(C(N)=O)c2C1 (stereo not given)
110 to 117 °C

Another: O=C1Nc2cc(Cl)c(Cl)cc2C1=O
271 to 272 °C

Another: CCOC(=O)N1C=CC(c2c(-c3ccccc3)nn3ccccc23)C(Cl)=N1 (stereo not given)
130 to 132 °C
